- SYSTEM UNDER TEST: human brain-derived dopamine D4 receptor (Homo sapiens)
- Construct: expressed in transfected cells; host or cells: CHO (CHO-K1) or HEK293 cells
- Sequence (P21917 1-419): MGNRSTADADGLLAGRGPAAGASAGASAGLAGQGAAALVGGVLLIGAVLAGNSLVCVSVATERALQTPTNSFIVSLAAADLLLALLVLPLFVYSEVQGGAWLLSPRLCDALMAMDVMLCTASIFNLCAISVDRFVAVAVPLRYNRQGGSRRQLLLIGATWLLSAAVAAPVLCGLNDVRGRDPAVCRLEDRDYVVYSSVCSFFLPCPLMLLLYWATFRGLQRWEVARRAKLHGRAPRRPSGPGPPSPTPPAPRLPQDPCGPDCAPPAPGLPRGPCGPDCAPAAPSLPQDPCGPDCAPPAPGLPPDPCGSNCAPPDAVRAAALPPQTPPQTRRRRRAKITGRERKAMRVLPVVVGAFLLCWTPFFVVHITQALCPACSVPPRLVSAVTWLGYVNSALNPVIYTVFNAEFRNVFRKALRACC
- EXPERIMENT DESCRIPTION: Agonistic activity in G protein dependent pathway of dopamine D4 receptor (aequorin intracellular calcium luminescence, FDSS)
- Type: cell-based
- DETAILS: read-out: Maximal activity on D4 receptor (%)
PROPERTY: Emax (%)

Record excerpt, results attached:
Cc1cccnc1-c1cc2n(n1)CCN(Cc1ccc(C(F)(F)F)cc1)C2 = 92
N#Cc1ccc(CN2CCn3nc(-c4ccccn4)cc3C2)cc1 = 48
Cc1cccnc1-c1cc2n(n1)CCN(Cc1ccc(Cl)c(C)n1)C2 = 50
Cc1cccnc1-c1cc2n(n1)CCN(Cc1cc3c(cn1)COC3)C2 = 47

1: Fc1cccnc1-c1cc2n(n1)CCN(Cc1c[nH]c3ccccc13)C2
2: Cc1cccnc1-c1cc2n(n1)CCN(Cc1cnc(C(F)F)nc1)C2
3: Cc1ccc(CN2CCn3nc(-c4ncccc4C)c(C)c3C2)nc1
4: Cc1cccnc1-c1cc2n(n1)CCN(Cc1cc3n(n1)CCCC3)C2
Order by Emax, ascending. Answer by listing the labels in the requested order.
2, 4, 1, 3
(2: 29%, 4: 44%, 1: 65%, 3: 93%)

---

- SYSTEM UNDER TEST: human brain-derived dopamine D4 receptor (Homo sapiens, UniProt P21917)
- Sequence (P21917 1-419): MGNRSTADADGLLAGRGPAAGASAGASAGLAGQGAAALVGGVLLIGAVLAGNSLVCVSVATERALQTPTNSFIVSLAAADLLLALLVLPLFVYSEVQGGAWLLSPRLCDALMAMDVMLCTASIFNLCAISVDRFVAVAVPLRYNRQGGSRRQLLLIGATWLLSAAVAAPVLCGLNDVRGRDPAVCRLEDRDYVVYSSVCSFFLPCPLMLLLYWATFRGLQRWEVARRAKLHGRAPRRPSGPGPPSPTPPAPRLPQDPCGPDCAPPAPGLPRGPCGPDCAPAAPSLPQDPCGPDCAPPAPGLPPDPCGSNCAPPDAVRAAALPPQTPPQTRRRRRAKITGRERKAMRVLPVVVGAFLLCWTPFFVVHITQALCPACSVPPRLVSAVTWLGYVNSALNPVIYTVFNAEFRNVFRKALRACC
- EXPERIMENT DESCRIPTION: Agonistic activity in G protein dependent pathway of dopamine D4 receptor (aequorin intracellular calcium luminescence, FDSS)
- DETAILS: concentration required to achieve a 50% response of Emax; CHO-K1 or HEK293 cells transfected with D4 receptor
pEC50: −log10 of the molar value.
PROPERTY: pEC50

Use the examples below as a reference point.
Cc1cccc(CN2CCn3nc(-c4ccccn4)cc3C2)c1 = 9.30
Fc1ccc(CN2CCn3nc(-c4ncccc4F)cc3C2)nc1 = 6.95
Cc1cnc(CN2CCn3nc(-c4ncccc4C)cc3C2)c(F)c1 = 6.94
Cc1cccnc1-c1cc2n(n1)CCN(Cc1ccc(C(F)F)cn1)C2 = 8.30

A: Cc1ncc(CN2CCn3nc(-c4ncccc4F)cc3C2)c(C)n1
B: Cc1cccnc1-c1cc2n(n1)CCN(Cc1ccc(Cl)cc1)C2
I would appreciate it if you could say which entry, A or B , has the lower pEC50 value. Lab log: write the label of the selected item as the result.
A
(A: 7.37, B: 7.92)
